- Test system: rodent lifetime carcinogenesis bioassay, tumor incidence TD50
- Run description: carcinogenic potency in animals, long-term in vivo studies, CPDB compilation (AID 1745844)
- Test context: mouse; strain B6C3F1; males; oral dosing; site: lung; lesion: adenoma; dosed 76 weeks; study length 76 weeks
Activity calls are given as the source filed them. How the calls were made is not given here.
Would you kindly list TD50 for each of these compounds?

Example cases with answers are listed next.
1) O=S(=O)(Oc1ccc(Cl)cc1Cl)c1ccccc1 : 924 mg/kg/day (inactive)
2) CCCOC(=O)C1c2cc3c(cc2CC(C)C1C(=O)OCCC)OCO3 (configuration not stated) : 4650 mg/kg/day (inactive)
3) ClC1=C(Cl)C2(Cl)C3C(Cl)OC(Cl)C3C1(Cl)C2(Cl)Cl (configuration not stated) : 0.5 mg/kg/day (inactive)

Dear colleague, could you please provide TD50 for the compounds listed below?
1. CCN(CC)C(=S)[S-].CCN(CC)C(=S)[S-].[Cd+2]
2. O=S(=O)(c1ccc(Cl)cc1)c1cc(Cl)c(Cl)cc1Cl

Result ::
1: 25.9 mg/kg/day (inactive); 2: 205 mg/kg/day (inactive)

====

Would you kindly list TD50 for each of these molecules?
- System: rodent lifetime carcinogenesis bioassay, tumor incidence TD50
- Run description: carcinogenic potency in animals, long-term in vivo studies, CPDB compilation (AID 1745844)
- Test context: rat; strain Osborne-Mendel; males; in feed; site: any site (literature study); lesion: several types; types named in the paper; dosed 80 weeks; study length 113 weeks
Active and inactive are the calls of the source. The rule behind the calls is not given here.

1. O=C1C2CC=CCC2C(=O)N1SC(Cl)(Cl)Cl (configuration not stated) : 4780 mg/kg/day (inactive)

Consider now this further molecule.
The reported TD50 of the molecule Nc1c(Cl)c(Cl)nc(C(=O)O)c1Cl was 2930 mg/kg/day (inactive)

====

- System: rodent lifetime carcinogenesis bioassay, tumor incidence TD50
- Run description: carcinogenic potency in animals, long-term in vivo studies, CPDB compilation (AID 1745844)
- Test context: rat; strain Charles River CD (Sprague-Dawley); males; in feed; site: any site (literature study); lesion: several types; types named in the paper; dosed 77 weeks; study length 116 weeks
Calls of active or inactive are those of the source. No rule for the calls is given here.
Quantity kind: TD50

The reported TD50 of the compound Nc1c(Cl)cc(Cl)cc1Cl was 45.9 mg/kg/day (inactive)

====

- Tested on: rodent lifetime carcinogenesis bioassay, tumor incidence TD50
- Run description: carcinogenic potency in animals, long-term in vivo studies, CPDB compilation (AID 1745844)
- Test context: mouse; strain B6C3F1; females; in feed; site: lung; lesion: alveolar/bronchiolar adenoma + alveolar/bronchiolar carcinoma; dosed 103 weeks; study length 107 weeks
Would you kindly list TD50 for each of these compounds?
Answers are plain numbers, in mg/kg/day.

1. CC(C)(c1ccc(O)cc1)c1ccc(O)cc1 : 41400

Consider now this further compound.
The reported TD50 of the compound Clc1nc(Cl)nc(Nc2ccccc2Cl)n1 was 1690

====

- Tested on: rodent lifetime carcinogenesis bioassay, tumor incidence TD50
- Run description: carcinogenic potency in animals, long-term in vivo studies, CPDB compilation (AID 1745844)
- Test context: rat; strain Fischer 344; males; in feed; site: urinary bladder; lesion: squamous-cell carcinoma + squamous-cell papilloma; dosed 27 weeks; study length 104 weeks
Quantity kind: TD50

The reported TD50 of the compound COc1ccccc1[N+](=O)[O-] was 273 mg/kg/day
